Source: the RepoRT retention time repository

experiment: Waters ACQUITY UPLC BEH C18, 100 × 2.1 mm, 1.7 µm, 40 °C, 0.3 to 0.4 mL/min, estimated dead time 0.63 min; A: water + 0.1% formic acid; B: methanol + 0.1% formic acid; gradient (min/%B) 0/0.5 0.1/0.5 10/80 10.1/99.5 12/99.5; conditions: stereoisomer not certain
We begin with a simple list: items and their reported LC retention time.
measured-endpoint: LC retention time (min)

CC(=O)N1CCCC1C(=O)O (configuration not stated) ... 2.46
CCC(O)(C(=O)O)c1cc2n(c(=O)c1COC(C)=O)Cc1cc3ccccc3nc1-2 (configuration not stated) ... 5.4
Cc1[nH]ccc2c1[nH]c1cc(=O)ccc12 ... 3.18
COc1ccc(-c2coc3cc(OC4OC(CO)C(O)C(O)C4O)cc(O)c3c2=O)cc1 (configuration not stated) ... 5.73
COc1cc(C=CC(=O)OC2CC(O)(C(=O)O)CC(O)C2O)ccc1O (configuration not stated) ... 3.71
CC1OC(Oc2c(-c3ccc(O)c(O)c3)oc3cc(O)cc(O)c3c2=O)C(OC2OC(CO)C(O)C(O)C2O)C(O)C1O (configuration not stated) ... 4.15
O=C(O)CCCCCCC(=O)O ... 4.1
CC1(C)CC(O)C2(C)CCC3(C)C(=CCC4C5(C)CCC(OC6OC(C(=O)O)C(O)C(O)C6OC6OC(CO)C(O)C(O)C6OC6OCC(O)C(O)C6O)C(C)(CO)C5CCC43C)C2C1 (configuration not stated) ... 5.73
O=c1ccc2cc(OC3OC(CO)C(O)C(O)C3O)c(O)cc2o1 (configuration not stated) ... 2.87
Oc1ccc(C=Cc2cc(O)cc3c2C(c2cc(O)cc(O)c2)C(c2ccc(O)cc2)O3)cc1 (configuration not stated) ... 5.81
COc1cc2c(cc1O)CC1c3c(cc(O)c(OC)c3-2)CCN1C (configuration not stated) ... 3.35
CCN1CC2(OC(=O)c3ccccc3N)CCC(OC)C34C1C(CC23)C1(O)CC(OC)C2CC4C1(O)C2OC (configuration not stated) ... 4.95

---

test: Waters ACQUITY UPLC BEH C18, 100 × 2.1 mm, 1.7 µm, 40 °C, 0.3 to 0.4 mL/min, estimated dead time 0.63 min; A: water + 0.1% formic acid; B: methanol + 0.1% formic acid; gradient (min/%B) 0/0.5 0.1/0.5 10/80 10.1/99.5 12/99.5; conditions: stereoisomer not certain
We begin with a simple list: items and their reported LC retention time.
measured-endpoint: LC retention time (min)

CCN1CC2(COC)C(O)CC(OC)C34C5CC6(O)C(OC)C(O)C(OC(C)=O)(C5C6OC(=O)c5ccccc5)C(C(OC)C23)C14 (stereo not drawn) ... 5.97
CC1OC(OC2C(OC3C(OC4CCC5(C)C(CCC6(C)C5CC=C5C7CC(C)(C)CC(OC8OC(C)C(O)C(O)C8O)C7(C)CCC56C)C4(C)CO)OC(C(=O)O)C(O)C3O)OCC(O)C2O)C(O)C(O)C1O (stereo not drawn) ... 5.86
Nc1ccc(C(=O)NC(CCC(=O)O)C(=O)O)cc1 (stereo not drawn) ... 3.22
CC1(C)CCC2(C(=O)O)CCC3(C)C(=CCC4C5(C)CC(O)C(O)C(C)(C(=O)OC6OC(COC(=O)CC(=O)O)C(O)C(O)C6O)C5CCC43C)C2C1 (stereo not drawn) ... 7.45
Cc1c2ccncc2c(C)c2c1[nH]c1ccccc12 ... 4.93
COc1cc(C=CC(=O)OC2C(OC3C(Oc4cc(O)c5c(=O)cc(-c6ccc(O)c(OC)c6)oc5c4)OC(C(=O)O)C(O)C3O)OC(C(=O)O)C(O)C2O)ccc1O (stereo not drawn) ... 4.68
COc1ccc2cc1Oc1ccc(cc1)CC1=NCCc3cc(OC)c(cc31)Oc1c(OC)c(OC)c(O)c3c1C(C2)N(C)CC3 (stereo not drawn) ... 3.96
OCC1OC(Oc2cc(O)cc(C=Cc3ccc(O)cc3)c2)C(O)C(O)C1O (stereo not drawn) ... 4.05
CS(=O)C=CCCN=C=S (stereo not drawn) ... 3.77
CC(=O)OC1C(C)CNC2C(C)C3C(CC4C5CCC6CC(OC7OC(CO)C(OC8OC(CO)C(O)C(OC9OCC(O)C(O)C9O)C8OC8OC(CO)C(O)C(O)C8O)C(O)C7O)CCC6(C)C5CCC43C)OC21O (stereo not drawn) ... 4.29
O=C(O)CC(=O)OCC1OC(Oc2ccc3c(=O)c(-c4ccc(O)cc4)coc3c2)C(O)C(O)C1O (stereo not drawn) ... 4.1
O=C(OC1Cc2c(O)cc(O)cc2OC1c1cc(O)c(O)c(O)c1)c1cc(O)c(O)c(O)c1 (stereo not drawn) ... 3.46
CC=CS(=O)CC(NC(=O)CCC(N)C(=O)O)C(=O)O (stereo not drawn) ... 1.79
C=CC1C(OC2OC(CO)C(O)C(O)C2O)OC=C(C(=O)O)C1Cc1nccc2c1[nH]c1ccccc12 (stereo not drawn) ... 3.72
O=C1CC(c2ccc(O)c(O)c2)Oc2c1ccc(OC1OC(CO)C(O)C(O)C1O)c2O (stereo not drawn) ... 3.47
CC1OC(OCC2OC(Oc3c(-c4ccc(O)cc4)oc4cc(OC5OC(C)C(O)C(O)C5O)cc(O)c4c3=O)C(O)C(O)C2O)C(O)C(O)C1O (stereo not drawn) ... 3.4
CCCCCCCCCCCCCCCC(=O)OCC(O)COP(=O)(O)OCCN (stereo not drawn) ... 10
O=C(O)CC(O)(CC(=O)O)C(=O)O ... 1.57

---

test: Waters ACQUITY UPLC BEH C18, 100 × 2.1 mm, 1.7 µm, 40 °C, 0.3 to 0.4 mL/min, estimated dead time 0.63 min; A: water + 0.1% formic acid; B: methanol + 0.1% formic acid; gradient (min/%B) 0/0.5 0.1/0.5 10/80 10.1/99.5 12/99.5; conditions: stereoisomer not certain
We begin with a simple list: items and their reported LC retention time.
measured-endpoint: LC retention time (min)

COc1cc(CC(COC2OC(CO)C(O)C(O)C2O)C(COC2OC(CO)C(O)C(O)C2O)Cc2ccc(O)c(OC)c2)ccc1O (configuration not stated) ... 3.67
CC(C)=CCCC(C)(OC1OC(COC2OC(CO)C(O)C(O)C2O)C(O)C(O)C1O)C1CCC2(C)C1C(O)CC1C3(C)CCC(OC4OC(CO)C(O)C(O)C4OC4OC(CO)C(O)C(O)C4O)C(C)(C)C3CCC12C (configuration not stated) ... 5.88
CC(=O)OCC1OC(Oc2cc(O)c3c(=O)cc(-c4ccc(O)cc4)oc3c2)C(O)C(O)C1O (configuration not stated) ... 5.14
COc1cc(C=CC(=O)OCC2OC(OC3C(c4c(O)cc5oc(-c6ccc(O)c(OC)c6)cc(=O)c5c4O)OC(CO)C(O)C3O)C(O)C(O)C2O)ccc1O (configuration not stated) ... 4.19
COc1cc(-c2cc(=O)c3c(O)cc(OC4OC(COC(=O)CC(=O)O)C(O)C(O)C4O)cc3o2)cc(OC)c1O (configuration not stated) ... 4.91
OCC1OC(OC2C(Oc3cc4c(O)cc(O)cc4[o+]c3-c3ccc(O)c(O)c3)OC(CO)C(O)C2O)C(O)C(O)C1O (configuration not stated) ... 2.77
CN1CCc2cc3c(c4c2C1Cc1ccccc1-4)OCO3 (configuration not stated) ... 4.89

---

We begin with a simple list: items and their reported LC retention time.
assay: Waters ACQUITY UPLC BEH C18, 100 × 2.1 mm, 1.7 µm, 40 °C, 0.3 to 0.4 mL/min, estimated dead time 0.63 min; A: water + 0.1% formic acid; B: methanol + 0.1% formic acid; gradient (min/%B) 0/0.5 0.1/0.5 10/80 10.1/99.5 12/99.5; conditions: stereoisomer not certain
measured-endpoint: LC retention time (min)

CC1OC(OCC2OC(Oc3c(-c4ccc(O)cc4)oc4cc(O)cc(O)c4c3=O)C(O)C(O)C2O)C(O)C(O)C1O (configuration not stated) ... 4
COc1ccc2c(c1)OC(OC1OC(CO)C(O)C(O)C1O)C(=O)N2OC (configuration not stated) ... 4.1
OCC1OC(Oc2cc(O)cc3[o+]c(-c4ccc(O)c(O)c4)c(OC4OC(CO)C(O)C(O)C4OC4OCC(O)C(O)C4O)cc23)C(O)C(O)C1O (configuration not stated) ... 2.49
O=c1cc2oc(-c3ccc(O)cc3)ccc-2c(O)c1 ... 3.87
COC(=O)C1C(O)CCC2CN3CCc4c([nH]c5ccccc45)C3CC21 (configuration not stated) ... 4.35
O=C(O)C1Cc2c([nH]c3ccccc23)CN1 (configuration not stated) ... 3.35
O=c1oc2cc(O)ccc2c2oc3cc(O)ccc3c12 ... 5.97

---

test: Waters ACQUITY UPLC BEH C18, 100 × 2.1 mm, 1.7 µm, 40 °C, 0.3 to 0.4 mL/min, estimated dead time 0.63 min; A: water + 0.1% formic acid; B: methanol + 0.1% formic acid; gradient (min/%B) 0/0.5 0.1/0.5 10/80 10.1/99.5 12/99.5; settings: stereoisomer not certain
measured-endpoint: LC retention time (min)

O=c1c(OC2OC(CO)C(O)C(O)C2O)c(-c2ccc(OC3OC(CO)C(O)C(O)C3O)c(O)c2)oc2cc(O)cc(O)c12 (stereo unspecified) ... 3.54
COc1cc(CCN)ccc1O ... 2.06
O=C(C=Cc1ccc(O)c(O)c1)OC1CC(O)(C(=O)O)CC(O)C1O (stereo unspecified) ... 3.13
COc1cc(C=CC(=O)NCCCCNC(=O)C=Cc2ccc(O)c(OC)c2)ccc1O ... 5.19
Cc1ncc(COC2OC(CO)C(O)C(O)C2O)c(CO)c1O (stereo unspecified) ... 1.7
O=C(O)C1C(O)CCC2CN3CCc4c([nH]c5ccccc45)C3CC21 (stereo unspecified) ... 3.82
CCCCCC(=O)OC1C(OC2(CO)OC(CO)C(OC(C)=O)C2O)OC(CO)C(OC(=O)CCCC)C1OC(=O)CCCCC (stereo unspecified) ... 9.49
CC(C)CC(N)C(=O)NC(C)C(=O)O (stereo unspecified) ... 2.02
CC1CCC2(C(=O)OC3OC(COC4OC(CO)C(OC5OC(C)C(O)C(O)C5O)C(O)C4O)C(O)C(O)C3O)CCC3(C)C(=CCC4C5(C)CC(O)C(O)C(C)(CO)C5C(O)CC43C)C2C1C (stereo unspecified) ... 4.88
C=C(C)C1CNC(C(=O)O)C1CC(=O)O (stereo unspecified) ... 2.44
C=CC1C(OC2OC(CO)C(O)C(O)C2O)OC=C(C(=O)O)C1CC1NCCc2c1[nH]c1ccccc21 (stereo unspecified) ... 3.94
CC(C)CC(NC(=O)C(C)N)C(=O)O (stereo unspecified) ... 2.36
COc1ccc(C2CC(=O)c3c(O)cc(OC4OC(COC5OC(C)C(O)C(O)C5O)C(O)C(O)C4O)cc3O2)cc1 (stereo unspecified) ... 5.33
CC1(C)CC(=O)C2(C)CCC3(C)C(=CCC4C5(C)CCC(OC6OC(C(=O)O)C(O)C(O)C6OC6OC(CO)C(O)C(O)C6O)C(C)(CO)C5CCC43C)C2C1 (stereo unspecified) ... 7.84
COc1cc(-c2[o+]c3cc(O)cc(OC4OC(CO)C(O)C(O)C4O)c3cc2OC2OC(COC3OC(C)C(OC(=O)C=Cc4ccc(O)cc4)C(O)C3O)C(O)C(O)C2O)cc(O)c1O (stereo unspecified) ... 3.76
O=C(O)c1cc(O)c2c(c1)C(C1c3cc(C(=O)O)cc(O)c3C(=O)c3c(OC4OC(CO)C(O)C(O)C4O)cccc31)c1cccc(OC3OC(CO)C(O)C(O)C3O)c1C2=O (stereo unspecified) ... 3.82
COc1cc(C=CC(=O)O)cc(OC)c1O ... 4.21
CC=C1CC(C)C(C)(O)C(=O)OCC2=CCN3CCC(OC1=O)C23 (stereo unspecified) ... 3.8
O=C(C=Cc1ccc(O)cc1)NCCCCNCCCNC(=O)C=Cc1ccc(O)cc1 ... 3.83
O=C(O)C1CCC(=O)N1CC1(O)OC(CO)C(O)C1O (stereo unspecified) ... 1.77
O=c1c(OC2OCC(O)C(O)C2O)c(-c2cc(O)c(O)c(O)c2)oc2cc(O)cc(O)c12 (stereo unspecified) ... 3.9
